test: Inhibition of beta-catenin-dependent canonical Wnt3A pathway in human HEK293T cells at 1 uM by luciferase reporter gene assay; assay type: cell-based; conditions: HEK-293T
Decide using inhibition: a value greater than or equal to 80% is fulfilled, a smaller one is not fulfilled.

q: I'd appreciate it if you could say whether O=C1[C@@H]2[C@@H]3CC[C@@H](C3)[C@@H]2C(=O)N1[C@H]1CC[C@H](C(=O)Nc2cccc3cnccc23)CC1 has inhibition at least equal to 80%.
a: fulfilled

q: I'd appreciate it if you could say whether N#Cc1ccc(NC(=O)c2ccc(N3C(=O)[C@@H]4[C@@H]5CC[C@@H](C5)[C@@H]4C3=O)cc2)cc1 has inhibition at least equal to 80%.
a: not fulfilled

q: I'd appreciate it if you could say whether O=C1[C@@H]2[C@@H]3CC[C@@H](C3)[C@@H]2C(=O)N1[C@H]1CC[C@H](C(=O)Nc2cncc3ccccc23)CC1 has inhibition at least equal to 80%.
a: fulfilled

q: I'd appreciate it if you could say whether O=C(Nc1cccc2cccnc12)c1ccc(N2C(=O)[C@@H]3[C@H](C2=O)[C@@H]2C=C[C@H]3CC2)cc1 has inhibition at least equal to 80%.
a: fulfilled

q: I'd appreciate it if you could say whether O=C1[C@@H]2[C@@H]3CC[C@@H](C3)[C@@H]2C(=O)N1[C@H]1CC[C@H](C(=O)Nc2ccccc2O)CC1 has inhibition at least equal to 80%.
a: not fulfilled

q: I'd appreciate it if you could say whether CC1[C@H]2CC[C@@H]1[C@@H]1C(=O)N(c3ccc(C(=O)Nc4cccc5cccnc45)cc3)C(=O)[C@@H]12 (some centres not stated) has inhibition at least equal to 80%.
a: not fulfilled
